Reference source for all entries: patent US9181234B2

# test method notes: physchem
# condition description: pH 7.4, aqueous buffer, kinetic from dmso stock, Solubility Range
reported metric: solubility at 24 h

                                   compound     reported_metric        measurement
0  CCNC(=O)Nc1nc2cc(-c3cnc(N4CCC(C)(C(=O)O)CC4)nc3)cc(-c3cc(OC(C)C)ncn3)c2s1  solubility at 24 h   400 to 800 µg/mL
1  CCNC(=O)Nc1nc2cc(-c3cnc(N4CCC(Cc5ccccc5)(C(=O)O)CC4)nc3)cc(-c3ccccn3)c2s1  solubility at 24 h  12.5 to 400 µg/mL
2  CCNC(=O)Nc1nc2cc(-c3cnc(N4CCC(C)(C(=O)O)CC4)nc3)cc(-c3cnn(C)c3)c2s1  solubility at 24 h        > 800 µg/mL
3  CCNC(=O)Nc1nc2cc(-c3cnc(N4CCC(C)(C(=O)O)CC4)nc3)cc(C(=O)N(C)CC)c2s1  solubility at 24 h        > 800 µg/mL
4  CCNC(=O)Nc1nc2cc(-c3cnc(N4CCC(C)(C(=O)O)CC4)nc3)cc(C)c2s1  solubility at 24 h        > 800 µg/mL
5  CCNC(=O)Nc1nc2cc(-c3cnc(N4CCC(C)(C(=O)O)CC4)nc3)cc(C#Cc3ccncc3)c2s1  solubility at 24 h   400 to 800 µg/mL
6  CCNC(=O)Nc1nc2cc(-c3cnc(N4CC5CCCC5(C(=O)O)C4)nc3)cc(-c3ccccn3)c2s1 (stereo not shown)  solubility at 24 h        > 800 µg/mL

----------
Below, each entry is listed alongside its reported solubility at 24 h.
# test method notes: physchem
# condition description: pH 7.4, aqueous buffer, kinetic from dmso stock, Solubility (pH 7.4)
reported metric: solubility at 24 h

In [3]: df
Out[3]:
                                 smiles_code     reported_metric  measurement
 0  CCNC(=O)Nc1nc2cc(-c3cnc(N4CCC(C)(C(=O)O)CC4)nc3)cc(/C(C)=N/OC)c2s1  solubility at 24 h  ≥ 800 µg/mL
 1  CCNC(=O)Nc1nc2cc(-c3cnc(N4CCC(C)(C(=O)O)CC4)nc3)cc(O)c2s1  solubility at 24 h  ≥ 800 µg/mL
 2  CCNC(=O)Nc1nc2cc(-c3cnc(N4CCC(C)(C(=O)O)CC4)nc3)cc(-c3cnc(CC)s3)c2s1  solubility at 24 h    200 µg/mL
 3  CCNC(=O)Nc1nc2cc(-c3cnc(N4CCC(C)(C(=O)O)CC4)nc3)cc(-c3nccnc3OC)c2s1  solubility at 24 h  ≥ 800 µg/mL
 4  CCNC(=O)Nc1nc2cc(-c3cnc(N4CCC(CC)(C(=O)O)CC4)nc3)cc(-c3nccc(C)n3)c2s1  solubility at 24 h  ≥ 800 µg/mL
 5  CCNC(=O)Nc1nc2cc(-c3cnc(N4CCC(Cc5ccccc5)(C(=O)OCC)CC4)nc3)cc(-c3ccccn3)c2s1  solubility at 24 h   12.5 µg/mL
 6  CCNC(=O)Nc1nc2cc(-c3cnc(N4CCC(CC)(C(=O)O)CC4)nc3)cc(-c3cnccn3)c2s1  solubility at 24 h  ≥ 800 µg/mL
 7  CCNC(=O)Nc1nc2cc(-c3cnc(N4CCC(C(=O)O)(C(C)C)CC4)nc3)cc(-c3ccccn3)c2s1  solubility at 24 h    400 µg/mL
 8  CCNC(=O)Nc1nc2cc(-c3cnc(N4CCC(CC)(C(=O)O)CC4)nc3)cc(/C=N\OC)c2s1  solubility at 24 h  ≥ 800 µg/mL
 9  CCNC(=O)Nc1nc2cc(-c3cnc(N4CCC(C)(C(=O)O)CC4)nc3)cc(-c3nc(CO)cs3)c2s1  solubility at 24 h  ≥ 800 µg/mL
10  C=CCC1(C(=O)O)CCN(c2ncc(-c3cc(-c4ccccn4)c4sc(NC(=O)NCC)nc4c3)cn2)CC1  solubility at 24 h  ≥ 800 µg/mL
11  CCNC(=O)Nc1nc2cc(-c3cnc(N4CCC(CC)(C(=O)O)CC4)nc3)cc(C=O)c2s1  solubility at 24 h  ≥ 800 µg/mL
12  CCNC(=O)Nc1nc2cc(-c3cnc(N4CCC(C)(C(=O)O)CC4)nc3)cc(C(=O)N3CCOCC3)c2s1  solubility at 24 h    400 µg/mL
13  CCNC(=O)Nc1nc2cc(-c3cnc(N4CCC(C)(C(=O)O)CC4)nc3)cc(-c3ncco3)c2s1  solubility at 24 h  ≥ 800 µg/mL
14  CCNC(=O)Nc1nc2cc(-c3cnc(N4CCC(C)(C(=O)O)CC4)nc3)cc(-c3ncc(C)cn3)c2s1  solubility at 24 h  ≥ 800 µg/mL

----------
# test method notes: Pharmacokinetic assay, IV and oral PK profile, rat
# Format: in vivo
# condition description: po, single peroral dose 3 mg/kg, plasma, read-out: AUCoral
Decide using AUC alone. Strictly below 8 µg·h/mL: y. Equal to or above 8 µg·h/mL: n.

                                smiles_code  class_assignment
0  CCNC(=O)Nc1nc2cc(-c3cnc(N4CCC(COC)(C(=O)O)CC4)nc3)cc(-c3ccccn3)c2s1                 y
1  CCNC(=O)Nc1nc2cc(-c3cnc(N4CCC(CC)(C(=O)O)CC4)nc3)cc(-c3ccccn3)c2s1                 n
2  CCNC(=O)Nc1nc2cc(-c3ccc(N4CCC(CC)(C(=O)O)CC4)nc3)cc(-c3ccccn3)c2s1                 n
3  CCNC(=O)Nc1nc2cc(-c3cnc(N4CCC(C)(C(=O)O)CC4)nc3)cc(-c3ccccn3)c2s1                 n
4  CCNC(=O)Nc1nc2c(F)c(-c3cnc(N4CCC(C)(C(=O)O)CC4)nc3)cc(-c3ccccn3)c2s1                 y
5  CCNC(=O)Nc1nc2cc(-c3ccc(N4CCC(C)(C(=O)O)CC4)nc3)cc(-c3ccccn3)c2s1                 y
6  CCNC(=O)Nc1nc2cc(-c3cnc(N4CCC(C)(C(=O)O)CC4)nc3)cc(-c3cscn3)c2s1                 y
7  C=CCC1(C(=O)O)CCN(c2ncc(-c3cc(-c4ccccn4)c4sc(NC(=O)NCC)nc4c3)cn2)CC1                 n
8  CCNC(=O)Nc1nc2cc(-c3cnc(N4CCC(C(=O)O)(C5CC5)CC4)nc3)cc(-c3ccccn3)c2s1                 y

----------
# test method notes: Turbidimetric assay: determination of solubility
# condition description: pH 9, aqueous buffer, kinetic from dmso stock, Solubility Range (maximum solubility), maximum of pH 4, 7.4 and 9; shown at pH 9
reported metric: solubility at 24 h

In [3]: df
Out[3]:
                                smiles_code        measurement
0  CCNC(=O)Nc1nc2cc(-c3cnc(N4CCC(CC)(C(=O)O)CC4)nc3)cc(-c3ccccn3)c2[nH]1  12.5 to 400 µg/mL

----------
Below, each entry is listed alongside its reported solubility at 24 h.
# test method notes: physchem
# condition description: pH 9, aqueous buffer, kinetic from dmso stock, Solubility Range (maximum solubility)
reported metric: solubility at 24 h

>>> df
                                smiles_code       measurement
0  CCNC(=O)Nc1nc2cc(-c3cnc(N4CCC(C)(C(=O)O)CC4)nc3)cc(-c3ccc(F)c(C)n3)c2s1       > 800 µg/mL
1  CCNC(=O)Nc1nc2cc(-c3cnc(N4CCC(C)(C(=O)O)CC4)nc3)ccc2s1  400 to 800 µg/mL
2  CCNC(=O)Nc1nc2cc(-c3ccc(N4CCC(CC)(C(=O)O)CC4)nc3)cc(-c3ccccn3)c2s1       > 800 µg/mL
3  CCNC(=O)Nc1nc2cc(-c3cnc(N4CCC(C)(C(=O)O)CC4)nc3)cc(-c3ncc(CC)cn3)c2s1  400 to 800 µg/mL
4  CCNC(=O)Nc1nc2cc(-c3cnc(N4CCC(C)(C(=O)O)CC4)nc3)nc(-c3ccccn3)c2s1  400 to 800 µg/mL
5  CCNC(=O)Nc1nc2cc(-c3cnc(N4CCC(CC)(C(=O)O)CC4)nc3)cc(/C(CC)=N\OC)c2s1  400 to 800 µg/mL
6  CCNC(=O)Nc1nc2cc(-c3cnc(N4CCC(C)(C(=O)O)CC4)nc3)cc(-c3nccc(OC)c3F)c2s1       > 800 µg/mL

----------
Below, each entry is listed alongside its reported solubility at 24 h.
# test method notes: physchem
# condition description: pH 7.4, aqueous buffer, kinetic from dmso stock, Max Solubility
reported metric: solubility at 24 h

>>> df
                                    compound  measurement
 0  CCNC(=O)Nc1nc2cc(-c3cnc(N4CCC(CC)(C(=O)O)CC4)nc3)cc(-c3ncc(C)cn3)c2s1  ≥ 800 µg/mL
 1  CCNC(=O)Nc1nc2cc(-c3cnnc(N4CCC(C)(C(=O)O)CC4)c3)cc(-c3ccccn3)c2s1  ≥ 800 µg/mL
 2  CCCC1(C(=O)O)CCN(c2ncc(-c3cc(-c4cc(C#N)ccn4)c4sc(NC(=O)NCC)nc4c3)cn2)CC1  ≥ 800 µg/mL
 3  CCNC(=O)Nc1nc2cc(-c3cnc(N4CCC(C)(C(=O)O)CC4)nc3)cc(C(=O)N3CCOCC3)c2s1    400 µg/mL
 4  CCNC(=O)Nc1nc2cc(-c3cnc(N4CCC(C)(C(=O)O)CC4)nc3)cc(NC(=O)c3ccccn3)c2s1  ≥ 800 µg/mL
 5  CCNC(=O)Nc1nc2cc(-c3cnc(N4CCC(C)(C(=O)O)CC4)nc3)cc(/C(C)=N/OCCOC)c2s1  ≥ 800 µg/mL
 6  CCNC(=O)Nc1nc2cc(-c3cnc(N4CCC(C)(C(=O)O)CC4)nc3)cc(/C=N/OCC)c2s1  ≥ 800 µg/mL
 7  CCNC(=O)Nc1nc2cc(-c3ccc(N4CCC(C)(C(=O)O)CC4)nc3)cc(-c3ccccn3)c2s1  ≥ 800 µg/mL
 8  CCNC(=O)Nc1nc2cc(-c3cnc(N4CCC(C)(C(=O)O)CC4)nc3)cc(-n3cccn3)n2n1    400 µg/mL
 9  CCNC(=O)Nc1nc2cc(-c3cnc(N4CCC(COC)(C(=O)O)CC4)nc3)cc(-c3ccccn3)c2s1  ≥ 800 µg/mL
10  CCNC(=O)Nc1nc2cc(-c3cnc(N4CCC(C)(C(=O)O)CC4)nc3)cc(C#Cc3cccnc3)c2s1  ≥ 800 µg/mL
11  CCNC(=O)Nc1nc2cc(-c3cnc(N4CCC(C)(C(=O)O)CC4)nc3)cc(-c3cnc(C)cn3)c2s1  ≥ 800 µg/mL
12  CCNC(=O)Nc1nc2cc(-c3cnc(N4CCC(C)(C(=O)O)CC4)nc3)cc(-c3ncccc3F)c2s1  ≥ 800 µg/mL
13  CCCC1(C(=O)O)CCN(c2ncc(-c3cc(-c4cc(OC)ccn4)c4sc(NC(=O)NCC)nc4c3)cn2)CC1  ≥ 800 µg/mL
14  CCNC(=O)Nc1nc2cc(-c3cnc(N4CCC(CC)(C(=O)O)CC4)nc3)cc(-c3nccc(OC)n3)c2s1  ≥ 800 µg/mL
15  CCNC(=O)Nc1nc2cc(-c3cnc(N4CCC(CC)(C(=O)O)CC4)nc3)cc(/C(CC)=N\OC)c2s1  ≥ 800 µg/mL
16  CCNC(=O)Nc1nc2cc(-c3cnc(N4CCC(C)(C(=O)O)CC4)nc3)cc(-c3ncc(C)cn3)c2s1  ≥ 800 µg/mL
17  CCNC(=O)Nc1nc2cc(-c3cncc(N4CCC(C)(C(=O)O)CC4)c3)cc(-c3ccccn3)c2s1  ≥ 800 µg/mL
18  CCNC(=O)Nc1nc2cc(-c3cnc(N4CCC(C)(C(=O)O)CC4)nc3)cc(-c3cnc(OC)cn3)c2s1  ≥ 800 µg/mL
19  CCNC(=O)Nc1nc2cc(-c3cnc(N4CCC(CC)(C(=O)O)CC4)nc3)cc(N3CCOCC3)c2s1    400 µg/mL
20  CCNC(=O)Nc1nc2cc(-c3cnc(N4CCC(CC)(C(=O)O)CC4)nc3)ccc2s1    100 µg/mL
21  CCNC(=O)Nc1nc2cc(-c3cnc(N4CCC(C)(C(=O)O)CC4)nc3)cc(C(=O)NCC)c2s1  ≥ 800 µg/mL
22  CCNC(=O)Nc1nc2cc(-c3cnc(N4CCC(C)(C(=O)O)CC4)nc3)cc(-c3cc(OCCOC)nc(C)n3)c2s1  ≥ 800 µg/mL
23  CCNC(=O)Nc1nc2cc(-c3cnc(N4CCC(C)(C(=O)O)CC4)nc3)cc(C#Cc3nccs3)c2s1  ≥ 800 µg/mL
24  CCNC(=O)Nc1nc2cc(-c3cnc(N4CCC(C)(C(=O)O)CC4)nc3)cc(COC)c2s1  ≥ 800 µg/mL
25  CCNC(=O)Nc1nc2cc(-c3cnc(N4CCC(C)(C(=O)O)CC4)nc3)cc(-c3nccc(OC)c3C#N)c2s1    100 µg/mL
26  CCNC(=O)Nc1nc2cc(-c3cnc(N4CCCC4(C)C(=O)O)nc3)cc(-c3ccccn3)c2s1 (centres unmarked)  ≥ 800 µg/mL
27  CCNC(=O)Nc1nc2cc(-c3cnc(N4CCC(CC)(C(=O)O)CC4)cn3)cc(-c3ccccn3)c2s1  ≥ 800 µg/mL
28  CCNC(=O)Nc1nc2cc(-c3cnc(N4CCC(C)(C(=O)O)CC4)nc3)cc(/C=N/OC)c2s1  ≥ 800 µg/mL
